Reference source for all entries: patent US20190062438A1

- subject-of-test: T1, soluble Homo sapiens CD131 comprising a C-terminal 6xHis tag (human, UniProt P32927 17-438)
- T1 construct: truncated after Ser438, C-terminal 6xHis; also called shCD131; shβc
- T1 sequence: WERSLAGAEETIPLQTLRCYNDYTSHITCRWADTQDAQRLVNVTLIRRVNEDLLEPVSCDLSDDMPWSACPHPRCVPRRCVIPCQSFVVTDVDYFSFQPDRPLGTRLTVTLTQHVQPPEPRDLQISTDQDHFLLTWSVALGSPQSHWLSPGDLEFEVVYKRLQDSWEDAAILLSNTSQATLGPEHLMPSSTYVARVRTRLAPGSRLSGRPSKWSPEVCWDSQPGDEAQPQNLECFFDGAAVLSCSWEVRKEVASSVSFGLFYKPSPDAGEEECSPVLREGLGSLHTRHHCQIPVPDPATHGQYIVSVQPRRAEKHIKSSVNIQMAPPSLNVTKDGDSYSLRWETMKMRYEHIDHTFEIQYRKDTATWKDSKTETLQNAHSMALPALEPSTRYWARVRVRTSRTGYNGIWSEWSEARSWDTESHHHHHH
- method-description: SPR, Fab over captured shCD131
measured-metric: koff (s⁻¹)

[
  {
    "binder": "9A2-VR39.17 Fab (Fab, V domains shown, recombinant Fab) VH: EVQLLESGGGLVQPGGSLRLSCAASGFTFPFYHKVWVRQAPGKGLEWVSSINGRGRVTYYADSVKGRFTISRDNSKNTLYLQMNSLRAEDTAVYYCARFYDSFFDIWGQGTMVTVSS VL: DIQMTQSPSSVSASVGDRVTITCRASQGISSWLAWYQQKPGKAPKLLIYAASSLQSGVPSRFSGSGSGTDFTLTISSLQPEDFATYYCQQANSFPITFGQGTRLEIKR",
    "quantitative-readout": 0.000566
  },
  {
    "binder": "9A2-VR24 Fab (Fab, V domains shown, recombinant Fab) VH: EVQLLESGGGLVQPGGSLRLSCAASGFTFPWYRVHWVRQAPGKGLEWVSSIRSSGGFTYYADSVKGRFTISRDNSKNTLYLQMNSLRAEDTAVYYCARFYDSFFDIWGQGTMVTVSS VL: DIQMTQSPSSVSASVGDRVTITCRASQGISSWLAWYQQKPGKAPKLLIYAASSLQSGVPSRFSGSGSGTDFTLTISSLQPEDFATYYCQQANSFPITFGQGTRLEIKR",
    "quantitative-readout": 0.0011
  }
]
